experiment summary: yeast display, Sf9 membrane polyspecificity reagent, FACS + sequencing; frameworks hold sequencing errors
quantity: polyreactivity (PSR sort gate)

Sample answers from the record:
sequence_data=QVQLVESGGGLVQAGGSLRLSCAASGSIFYKYMGWYRQAPGKERELVAAITWSGGSTYYADSVKGRFTISRDNAKNTVYLQMNSLKPEDTAVYYCNADDRHSRVGHSWQDAQFDYWGLGTQVTVSS measured_result="high polyreactivity"
sequence_data=QVQLVQSGGGLVQAGGSLRLSCAASGRTFYYYPMGWYRPAPGKERELVAAIRWRGGRTYADSVKGRFTISRDNAKNTVYLQMNSLKPEDTAVYYCAVESFYRHASLYDYWGQGTQVTVSS measured_result="high polyreactivity"
sequence_data=QVQLVESGGGLVQAGGSLRLSCAASGIIFARYAMGWYRQAPGKERELVAAITSGGGTSYADSVKGRFTISRDNAKNTVYLQMNSLKPEDTAVYYCNADGYLAERFVIRLDEYRDYDYWGQGTQVTVSS measured_result="low polyreactivity"
sequence_data=QVQLVESGGGLVQAGGSLRLSCAASGSTFATYAMGWYRQAPGKERELVAAITRSGGITYYADSVKGRFTISRDNAKNTVYLQMNSLKPEDNAVYYCAKQYKWYGSRFYYWGQGTQVTVSS measured_result="high polyreactivity"
sequence_data=QVQLVESGGGLVQAGGSLRLTCAASGFIFSLNAMGWYRQAPGKERELVAAISRCGVRTYYADSVKGRFSISRDNAKNTVYLQMNSLKPEDTAVYYCATAGPYYYYSGPQYDYWGQGTHVTVSS measured_result="high polyreactivity"

Which polyreactivity (PSR sort gate) value is on record for "QVQLVESWGGLVQPGGSLRLRCAASGLIFGRNAMGWYRQAPGKERELVAAISWSGGSTYYADSVKGRFTISRDNAKNTVYLQMNSLKPEDTAVYYCYRYRYYGSEDDYWGQGTQVTVSS" ?
high polyreactivity

Please do the same for "QVQLVESGGGLVQAGGSLRLSCAASGRIVRNAMGWYRPAPGKEWELVAAITRSGGSTYYADSVKGRFTISRDNAKKTVYLQMNSLKPEDTAVYYCAARHYRSRDGYSGQGTQVTVSS" as well.
high polyreactivity

Please do the same for "QVQLVESGGGLVQAGGSLRLSCAASGITFSYNAMGWYRQAPGKERELVAAISSNSDSTYYADSVKGRFTISRDYAKNTVYLQMNRLKPEDTAVYYCAADTPDAPDYSGFYYWGQGTQVTVSS" as well.
low polyreactivity

Please do the same for "QVQLVESGGGLVQAGGSLRLSCAASGSIFNRYAMGWFRQAPGKERELVAAISRRGAGTYYADSVKGRFTISRDNAKNTVYLQMNSLKPEDTAVYYCAATLSYTGSKRYDYWGQGTQVTVSS" as well.
high polyreactivity

Please do the same for "QVQLVESGGGLVQAGGSLRLSCAASGITYFEYAMGWYRQATGKETELVAGIRFSGSTTYYADSVKGRFTISRDNAKNTVYLQMNSLKPEDTAVYYCNVDYYSGLYDYDSWGQGTQVTVSS" as well.
low polyreactivity
